system: VDR:RXRa (NR concentration 270 nM, RXRa partner concentration 90 nM); assay: PBM binding z-score (relative to random genomic background probes); higher = stronger binding; sequences stand for … in GC…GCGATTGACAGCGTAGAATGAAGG

| input sequence | PBM binding z-score |
| --- | --- |
| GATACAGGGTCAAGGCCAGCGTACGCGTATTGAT | 3.89 |
| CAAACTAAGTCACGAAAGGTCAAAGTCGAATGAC | 5.34 |
| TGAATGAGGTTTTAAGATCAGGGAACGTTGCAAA | -0.241 |
| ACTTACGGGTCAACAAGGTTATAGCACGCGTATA | 7.08 |
| ATCTCTAGGTAACAAGTTCAGTGTAAGAGAGGAC | 2.3 |
| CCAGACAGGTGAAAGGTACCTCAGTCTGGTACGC | 0.0967 |
| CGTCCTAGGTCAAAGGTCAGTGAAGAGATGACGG | 5.56 |
| AGAATGAGGTTATTAAGATCAGGGTATTGCGGTC | 2.43 |
| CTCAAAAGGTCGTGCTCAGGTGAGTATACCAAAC | 3.5 |
| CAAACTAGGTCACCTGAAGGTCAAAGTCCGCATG | 5.59 |
| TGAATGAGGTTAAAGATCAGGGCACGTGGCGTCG | 2.19 |
| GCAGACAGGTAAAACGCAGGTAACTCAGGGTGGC | -0.484 |
| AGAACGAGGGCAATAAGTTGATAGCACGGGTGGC | 3.26 |
| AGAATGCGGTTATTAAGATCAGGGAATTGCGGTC | -0.302 |
| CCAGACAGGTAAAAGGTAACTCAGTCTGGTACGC | 0.318 |
| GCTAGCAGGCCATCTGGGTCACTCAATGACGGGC | 1.04 |
| ACTAGCAGGCCAAGGGTCAGTCAAGATTAGTCCG | 1.12 |
| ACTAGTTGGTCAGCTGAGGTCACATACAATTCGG | 4.21 |
| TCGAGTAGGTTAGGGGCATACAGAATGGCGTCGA | 0.604 |
| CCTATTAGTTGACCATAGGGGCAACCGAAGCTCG | 0.497 |
| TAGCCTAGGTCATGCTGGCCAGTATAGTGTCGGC | 2.04 |
| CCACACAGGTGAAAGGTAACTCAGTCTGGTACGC | 1.05 |
| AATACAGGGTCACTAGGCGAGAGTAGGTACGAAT | 4.12 |
| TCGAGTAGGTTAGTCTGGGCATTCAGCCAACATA | -0.0618 |
| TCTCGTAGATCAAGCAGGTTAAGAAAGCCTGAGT | -0.00505 |
| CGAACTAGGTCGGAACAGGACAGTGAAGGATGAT | -0.292 |
| CTCGAAGGGTCGTGCTCAGGTGAGTATACCAAAC | 1.59 |
| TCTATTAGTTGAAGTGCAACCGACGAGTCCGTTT | 1.22 |
| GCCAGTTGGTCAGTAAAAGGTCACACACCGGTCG | 3.94 |
| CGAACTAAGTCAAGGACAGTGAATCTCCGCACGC | -0.36 |
| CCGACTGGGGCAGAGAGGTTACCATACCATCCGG | 1.73 |
| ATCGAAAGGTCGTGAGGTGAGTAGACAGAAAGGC | 3.35 |
| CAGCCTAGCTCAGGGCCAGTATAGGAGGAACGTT | -0.907 |
| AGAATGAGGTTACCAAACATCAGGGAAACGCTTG | 1.04 |
| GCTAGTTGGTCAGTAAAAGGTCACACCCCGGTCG | 3.83 |
| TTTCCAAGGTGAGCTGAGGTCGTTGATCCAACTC | 4.12 |
| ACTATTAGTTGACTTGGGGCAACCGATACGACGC | 0.274 |
| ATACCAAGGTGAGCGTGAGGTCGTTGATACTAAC | 3.32 |
| TCTGCTAGGTCGGTTGGTCAGCTAACGAGCTGCC | -0.462 |
| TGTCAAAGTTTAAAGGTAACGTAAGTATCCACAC | 1.33 |
| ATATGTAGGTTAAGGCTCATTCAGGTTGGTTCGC | 0.395 |
| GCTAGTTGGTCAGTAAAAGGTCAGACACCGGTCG | 2.38 |
| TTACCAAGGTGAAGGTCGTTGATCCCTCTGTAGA | 1.24 |
| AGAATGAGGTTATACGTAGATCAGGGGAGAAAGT | 1.42 |
| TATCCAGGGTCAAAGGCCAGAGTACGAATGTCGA | 4.95 |
| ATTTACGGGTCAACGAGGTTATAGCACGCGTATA | 8.05 |
| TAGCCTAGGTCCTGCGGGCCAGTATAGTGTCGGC | -1.05 |
| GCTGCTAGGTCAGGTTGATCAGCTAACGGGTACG | 0.431 |
| TCGACTAGGTTACCAATGGGGCATTCAGCTTTCT | 0.439 |
| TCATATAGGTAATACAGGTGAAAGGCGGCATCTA | 1.17 |
| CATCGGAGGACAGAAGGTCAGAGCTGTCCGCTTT | 1.06 |
